- target of assay: ERR gamma ligand-binding domain (LBD) (Homo sapiens (Human), UniProt P62508)
- Sequence (P62508 233-457): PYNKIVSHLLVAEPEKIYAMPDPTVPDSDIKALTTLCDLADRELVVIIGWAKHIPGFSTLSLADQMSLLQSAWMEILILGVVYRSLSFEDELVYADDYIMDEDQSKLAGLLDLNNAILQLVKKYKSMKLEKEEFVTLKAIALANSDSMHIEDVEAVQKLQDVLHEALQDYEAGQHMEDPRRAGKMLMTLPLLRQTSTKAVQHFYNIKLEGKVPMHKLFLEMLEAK
property label: IC50 (nM)
API: value field is a number in nM; no unit string.

## Task Given the entry OCCC/C(=C(\c1ccc(O)cc1)c1ccc(C2CCN(C3CCCCC3)CC2)cc1)c1ccccc1 [Compound 22p] , report its measured IC50.
## Result 99

* * *

- Format: in vitro ADME, rat
- measurement conditions: 1 μM, 30 minutes, 37° C.
Would you mind telling me the reported MS (Microsomal Stability) (%) rat of each entry?
Report the figure in % without appending any unit label.

## Task Dear colleague, I am looking for the recorded MS (Microsomal Stability) (%) rat of the following compound: OCCC/C(=C(\c1ccc(O)cc1)c1ccc(C2CCN(C3CCCCC3)CC2)cc1)c1ccccc1 [Compound 22p]
## Result 75.3

## Task For Cc1ccc(/C(=C(\CCCO)c2ccccc2)c2ccc(C3CNC3)cc2)cc1 [Compound 20d] then?
## Result 54

## Task Follow-up entry: CC(C)N1CCN(c2ccc(/C(=C(/CCCO)c3ccccc3)c3ccc(NS(C)(=O)=O)cc3)cc2)CC1 [Compound 27a]
## Result 65.0

## Task Lookup Cc1ccc(/C(=C(\CCCO)c2ccccc2)c2ccc(C3CCN(C)CC3)cc2)cc1 [Compound 22f]
## Result 80.0

## Task OCCC/C(=C(\c1ccc(O)cc1)c1ccc(C2CCNCC2)cc1)c1ccccc1 [Compound 20j] , same question.
## Result 84.5

## Task Next compound: Cc1ccc(/C(=C(\CCCO)c2ccccc2)c2ccc(C3CCNCC3)cc2)cc1 [Compound 20k]
## Result 89.0

## Task How about Cc1ccc(/C(=C(\CCCO)c2ccccc2)c2ccc(N3CCN(C(C)C)CC3)cc2)cc1 [Compound 18b] ?
## Result 40.0

## Task Another compound: OCCC/C(=C(\c1ccc(O)cc1)c1ccc(OCCN2C[C@H]3CNC[C@H]3C2)cc1)c1ccccc1
## Result 72.0

## Task Input OCCC/C(=C(\c1ccc(O)cc1)c1ccc(OCCN2C[C@H]3C[C@H]3[C@H]2CO)cc1)c1ccccc1 [Compound 38d]
## Result 11.7

## Task Proceed to CC(C)N1CCC(c2ccc(/C(=C(/CCCO)c3ccccc3)c3ccc(O)cc3)cc2)CC1 [Compound 22k]
## Result 69.0
